IC50 data for PI3K α (Homo sapiens, UniProt P42336) follow.

Nc1nc2cc(-c3ccc4ncc(N5C6CCC5COC6)nc4n3)ccc2o1 = < 0.1 µM

Task: What value of IC50 has been recorded for this entry: CCN1CCN(C2CN(c3cnc4ccc(-c5ccc6nc(N)[nH]c6c5)nc4c3)C2)CC1
Output: < 0.1 µM

Task: Now give it for Nc1nc2cc(-c3ccc4ncc(N5CC(N6C7CCC6COC7)C5)cc4n3)ccc2o1 too.
Output: < 0.1 µM

* * *

# Tested on: MDA-MB-361
# assay.text: MDA-MB-361 proliferation
# Assay type: cell-based
# assay.conditions: Homo sapiens; in vitro IC50, MDA-MB-361 cells
readout.label: IC50

Nc1nc2cc(-c3ccc4ncc(N5CCNC(=O)C5)nc4n3)ccc2o1 [Compound 29] = < 1 µM
Cc1nccn1C1CN(c2cnc3ccc(-c4ccc5oc(N)nc5c4)nc3c2)C1 [Compound 63] = < 10 µM
C[C@@H]1CN(c2cnc3ccc(-c4ccc5oc(N)nc5c4)nc3c2)CCN1 [Compound 48] = < 10 µM

As a next step, examine the compound that follows.
Task: Entry under review: Nc1nc2cc(-c3ccc4ncc(N5CC(N6CCN(CCO)CC6)C5)cc4n3)ccc2o1 [Compound 65] . Reported IC50?
Output: < 1 µM
